EXPERIMENT: chemical genetic growth profiling, strain panel (AID 1159580);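 further: tested at 20 µM; growth read once vehicle control cultures reached saturation at 30 °C; lower values mean less growth of the strain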
TEST PARAMETERS: S. cerevisiae deletion strains, growth OD, locus YOR270C, strain vph1
Screen size: about 5,500 compounds; about 2,000 (36%) were called active. About 18% were inconclusive and are not listed. No stated cut-off is given here; in the data, active means normalized growth mostly below about 0.91 (no sharp cut-off); inconclusive means no clear call, values can overlap the other calls; inactive means mostly above about 0.92. Some of the results follow.
The reply should be one of these categories: y (active), n (inactive)

Input: Would you mind telling me which call this test gave "COc1ccc(-c2cc(=O)c3c(O)cc(O[C@@H]4O[C@H](CO[C@H]5O[C@H](C)[C@@H](O)[C@H](O)[C@@H]5O)[C@@H](O)[C@H](O)[C@H]4O)cc3o2)cc1O" ?
Output: n

Input: Would you mind telling me which call this test gave CC1CC[C@]2(NC1)O[C@H]1CC3C4CC[C@H]5C[C@@H](O)CC[C@]5(C)C4CC[C@]3(C)[C@H]1[C@@H]2C (stereo partly drawn) ?
Output: y

Input: Would you mind telling me which call this test gave N#Cc1nn(-c2c(Cl)cc(C(F)(F)F)cc2Cl)c(N)c1S(=O)C(F)(F)F (stereo not drawn) ?
Output: n
